Listed binders paired with reported MDSC proportion (%) at 25.389 nM antibody
target_system: HuCD100-His (human, UniProt Q92854 22-734)
experiment_summary: cell-based or functional assay
Reply with just the number (in %).

A9 (antibody, human IgG4 S228P, V domains shown, also called antibody A9; antibody molecule A9) VH: QVQLVESGGGLVQAGGSLRLSCAASGFSLDYYAIGWFRQAPGKEREEVSCISSSGGSTDYADSVKGRFTISRAYAKVYLQMNSLKPEDTAVYYCAAGVSGSVCPPLIGAYWGQGTQVTVSS ... 10.2
A31 (antibody, human IgG4 S228P, V domains shown, also called antibody A31; antibody molecule A31) VH: EVQLVESGGGLVQPEGSLRLSCAASGFPLDYYAIGWFRQAPGKEREGVSCIISGGSTKYSASVKGRFTISRDSANNTVYLQMNSLKPEDTAVYFCAVSWSCDLFPRDTYGWDAWGQGTLVTVSS ... 9.56
A9-VHH2 (antibody, human IgG4 S228P, V domains shown) VH: QVQLVESGGGLVQAGGSLRLSCAASGFSLDYYAIGWFRQAPGKEREEVSCISSSGGSTDYADSVKGRFTISRAYAKVYLQMNSLRAEDTAVYYCAAGVSGSVCPPLIGAYWGQGTLVTVSS ... 13.1
A9-VHH3 (antibody, human IgG4 S228P, V domains shown) VH: QVQLVESGGGLVQAGGSLRLSCAASGFSLDYYAIGWFRQAPGKGLEEVSCISSSGGSTDYADSVKGRFTISRAYAKVYLQMNSLRAEDTAVYYCAAGVSGSVCPPLIGAYWGQGTLVTVSS ... 11.8

Exam item: Identify the reported MDSC proportion (%) at 25.389 nM antibody for the following entry. A31-VHH1 (antibody, human IgG4 S228P, V domains shown, also called humanized antibody A31-VHH1) VH: EVQLVESGGGLVQPEGSLRLSCAASGFPLDYYAIGWFRQAPGKEREGVSCIISGGSTKYSASVKGRFTISRDSAKNTVYLQMNSLRAEDTAVYFCAVSWSCDLFPRDTYGWDAWGQGTLVTVSS
Marked response: 7.71

Exam item: Give the value of MDSC proportion (%) at 25.389 nM antibody reported for the following: A9-VHH1 (antibody, human IgG4 S228P, V domains shown) VH: QVQLVESGGGLVQPGGSLRLSCAASGFSLDYYAIGWFRQAPGKEREEVSCISSSGGSTDYADSVKGRFTISRAYAKVYLQMNSLKPEDTAVYYCAAGVSGSVCPPLIGAYWGQGTLVTVSS
Marked response: 11
